read-out: Thrombomodulin, THBD (gene 7056); assay: BSK_CASM3C_Thrombomodulin: BioMAP Diversity Plus: CASM3C Assay for Thrombomodulin Biomarker Activity (AID 2283051); details: primary human coronary artery smooth muscle cells; actives raise or lower the signal;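 note: thrombomodulin protein level measured by ELISA 24 h after dosing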
The source made the active and inactive calls. Rule for the calls: active = hit-call score of the fitted dose curve at least 0.9, where 1 is the maximum; inactive = score below 0.9.
Pick one: y = active, n = inactive

Examples from the recorded data:
1) Nc1ccc(-c2ccc(N)cc2)cc1    n
2) O=C(O)C(F)(F)C(F)(F)C(F)(F)C(F)(F)C(F)(F)C(F)(F)C(F)(F)C(F)(F)F    n
3) CN(C)c1nc(=O)n(C2CCCCC2)c(=O)n1C    n
4) CCCCCCCCCC[N+](C)(C)CCCCCCCCCC    n
5) O=C(O)C(F)(F)C(F)(F)C(F)(F)C(F)(F)C(F)(F)C(F)(F)C(F)(F)C(F)(F)C(F)(F)F    n

Which outcome was entered for the compound `CCC(C)(c1ccc(O)cc1)c1ccc(O)cc1` in this test?
y

Give the logged outcome of this assay for the following compound: `N#Cc1ccc(N(CC(N)=O)CC(F)(F)F)cc1C(F)(F)F`
n

Which outcome was assigned to `Sc1ccccc1` in this test?
n

Which outcome was entered for the compound `Cc1cccc(C)c1N` in this test?
n

Give the logged outcome of this assay for the following compound: `CCNc1nc(NC(C)C)nc(SC)n1`
n

For this compound, state the assay outcome: `Cc1ccc(O)c(C)c1`
n

Recorded call for `O=C(NC(=O)c1c(F)cccc1F)Nc1cc(Cl)c(OC(F)(F)C(F)F)c(Cl)c1` ?
n

---

assay: CCTE_Shafer_MEA_dev_spike_duration_mean: CCTE's Neural Network Formation Assay for Mean Spike Duration, Shafer Lab (AID 2284051);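 note: mean network spike duration pooled as area under curve over DIV 5 to 12 recordings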
Activity calls are given as the source filed them. Rule for the calls: active = hit-call score of the fitted dose curve at least 0.9, where 1 is the maximum; inactive = score below 0.9.
# valid calls are 1 (yes) for active, 0 (no) for inactive; nothing else

Below are worked cases with known answers.
1) C=CC(N)=O    0 (no)
2) ClC(Cl)=C(c1ccc(Cl)cc1)c1ccc(Cl)cc1    1 (yes)
3) O=C(O)C(F)(F)C(F)(F)C(F)(F)C(F)(F)C(F)(F)F    0 (no)
4) O=C(O)C(F)(F)C(F)(F)C(F)(F)C(F)(F)C(F)(F)C(F)(F)C(F)(F)C(F)(F)F    0 (no)

From here, focus on the item given below.
// return assay outcome for `ClC1=C(Cl)[C@]2(Cl)[C@@H]3[C@@H]4C[C@@H]([C@H]5O[C@@H]45)[C@@H]3[C@@]1(Cl)C2(Cl)Cl`
1 (yes)

---

Read-out: ATP-citrate lyase (ACLY), ACLY (gene 47)
Experiment: LTEA_HepaRG_ACLY: Life Technologies and Expression Analysis (LTEA) Assay for ATP-citrate lyase (ACLY) using HepaRG (AID 2283466)
Details: mRNA level, 48 h; actives raise or lower the signal
Protocol: LTEA_HepaRG is a cell based, multiplexed-readout assay that uses HepaRG, a human liver cell line, with measurements taken at 48 hours after chemical dosing on a 96-well plate.LTEA_HepaRG_ACLY is one of 102 assay component(s) measured in the LTEA HepaRG cell culture assay. It is a marker of Steatosis.Data from the assay component LTEA_HepaRG_ACLY was analyzed into 1 endpoint. […]
Activity calls are given as the source filed them. The calls were made as follows: active = hit-call score of the fitted dose curve at least 0.9, where 1 is the maximum; inactive = score below 0.9.
measured parameter: AC50

1) ClC1=C(Cl)[C@]2(Cl)[C@@H]3[C@@H](Cl)[C@H]4O[C@H]4[C@@H]3C1(Cl)C2(Cl)Cl    75 µM (active)
2) C1CC2OC2CC1C1CO1 (centres undefined)    inactive
3) CCCCCCCCCc1ccc(O)cc1    inactive
4) c1cc2ccc3cccc4ccc(c1)c2c34    inactive
